tested on: NCI-H226 lung; test: NCI-60 one-dose screen, 48 h (100 = growth as untreated, 0 = no growth, -100 = all killed); settings: 10 µM unless noted
This is part of a sample that, as a whole, favours compounds with a hit. Of some 83,000 tested, about 20% had one in any assay. The source made the active and inactive calls. Rule for the calls: active = growth percent below 10; inactive = the rest.
Measured Quantity: growth

Example results:
Compound	growth
O=C(/C=C/C12c3ccccc3C(c3ccccc31)C1C(=O)NC(=O)C12)c1ccco1 (stereo not drawn)	81.6% (inactive)
COc1cc(Cc2cc(OC)c(O)c(OC)c2)cc(OC)c1O	106% (inactive)
O=C1/C(=C/c2cccc(Br)c2)COc2ccc(O)cc21	101% (inactive)
CCCCCCCCCCCCCCCCCCOc1ccccc1CC(=O)NCC[N+](C)(C)C	61.6% (inactive)
COCCn1cc(-c2nc(-c3cn(CCOC)c4ncccc34)cs2)c2cc(F)ccc21	75.4% (inactive)
COc1cc(/C=N/NC(=O)c2ccc(-n3cc(-c4ccccc4)nn3)cc2)cc(OC)c1OC	32.5% (inactive)
Cn1c2ccccc2c2c3c(c4c5cc(Br)ccc5n(C)c4c21)C(=O)N(O)C3=O	14.8% (inactive)
CCn1cc(C(=O)N/N=C/c2cccc(F)c2)c(=O)c2cc(F)c(N3CCNC(C)C3)c(F)c21 (stereo not drawn)	97.1% (inactive)

Q: // growth lookup, key: `C=C(C)[C@@H]1CC[C@]2(C(=O)N3CCNCC3)CC[C@]3(C)[C@H](CC[C@@H]4[C@@](C)(CCC(=O)N5CCNCC5)[C@H](C(=C)C)CC[C@]43C)[C@@H]12`
Result: 92.7% (inactive)

Q: // growth lookup, key: `COC(=O)c1c(C)nc(C)c2c1C(=O)C=C(NCc1ccccc1)C2=O`
Result: 93.9% (inactive)

Q: // growth lookup, key: `CSc1ccc(N2C(=N)C(=S)N(c3ccc(C)cc3)C2=O)cc1`
Result: 96.3% (inactive)

Q: // growth lookup, key: CN(C)CCCC1(c2ccc(F)cc2)OCc2cc(-c3csc4ccccc34)ccc21 (stereo not drawn)
Result: 87.3% (inactive)

Q: // growth lookup, key: `CNC(=O)c1cc(Oc2ccc3c(c2)sc2nc(-c4ccc(NC(=O)[C@@H](NC(=O)OC)C(C)C)cc4)cn23)ccn1`
Result: 56.9% (inactive)

Q: // growth lookup, key: `COc1ccc2c(O)c(/C=C3\N=Nc4ncccc43)oc2c1C[C@@H]1CCNC[C@H]1F`
Result: -4.38% (active)

Q: // growth lookup, key: `O=S(=O)(NCCNc1nccc(-c2c(-c3ccc(F)c(O)c3)nc3sccn23)n1)c1ccc(Cl)cc1`
Result: 24.2% (inactive)

Q: // growth lookup, key: `O=C1/C(=C/c2ccccn2)SC(=S)N1N1CCOCC1`
Result: 95.1% (inactive)

Q: // growth lookup, key: Cc1cc(C)c2c(c1)N(C)c1ncnc(-n3c(C)nc4cc(C)ccc43)c1CC2C (stereo not drawn)
Result: 61.6% (inactive)

Q: // growth lookup, key: `COCCn1cc(-c2csc(-c3c[nH]c4ccc(F)cc34)n2)c2cccnc21`
Result: 57.5% (inactive)

Q: // growth lookup, key: `COc1ccc2cc(C(=O)N3CCC([C@@H](C)C(=O)NCc4ccc5c(c4)OCO5)CC3)[nH]c2c1`
Result: -5.97% [50 µM] (active)

Q: // growth lookup, key: `O=C(/C=C/c1ccccc1Cl)c1cccc(OCCCCOc2cccc(C(=O)/C=C/c3ccccc3Cl)c2)c1`
Result: 90.3% (inactive)

Q: // growth lookup, key: `O=C(Nc1cccnc1Nc1ccc(Cl)cc1)c1cn(Cc2cccc(Oc3ccccc3)c2)nn1`
Result: 55.9% (inactive)

Q: // growth lookup, key: `Cc1cc(N2CCN(CC(=O)Nc3ccc4c(ccn4Cc4ccccc4)c3)CC2)nc(N2CCOCC2)n1`
Result: 84.3% (inactive)

Q: // growth lookup, key: `O=C1O[C@@H](c2ccccc2Cl)[C@@H]2c3cc4c(cc3CCN12)OCO4`
Result: 93.7% (inactive)

Q: // growth lookup, key: `O=C(NCCN1CCOCC1)OCc1ccc2c(Cl)cc(Cl)c(O)c2n1`
Result: 94.6% (inactive)

Q: // growth lookup, key: `CCOC(=O)c1cn2ncnc(Oc3ccc(NC(=O)NC4CC4)c(Cl)c3)c2c1C`
Result: 71.4% (inactive)

Q: // growth lookup, key: `O=C(NCCCCO)c1cncnc1Nc1ccc2c(ccn2Cc2cccc(F)c2)c1`
Result: 100% (inactive)

Q: // growth lookup, key: `CCCn1c(=S)sc2c(NNC(C)=O)nc(C)nc21`
Result: 97.1% (inactive)

----------
test system: SN12C renal; test: NCI-60 one-dose screen, 48 h (100 = growth as untreated, 0 = no growth, -100 = all killed); details: 10 µM unless noted
Compounds without any hit were thinned out: in the full panel of roughly 83,000, 20% have a hit.
// reported growth per item
Give the quantity in %, number only.

Example results:
Compound	Target Or System	growth / %
N#Cc1nn(-c2cc(=O)[nH]c3ccc(Br)cc23)c(N)c1C#N	SN12C renal	87.3
Cc1ccc(S(=O)(=O)OCC#CCOS(=O)(=O)c2ccc(C)cc2)cc1	SN12C renal	64.1
CN1C(=O)N2CN3CCCN(C3)CN3C(=S)NC1C23 (centres undefined)	SN12C renal	97.7
O=C(/C=C/C12c3ccccc3C(c3ccccc31)C1C(=O)NC(=O)C12)c1ccc(Cl)cc1Cl (centres undefined)	SN12C renal	9.38
O=C1OCC2=C1C(c1ccccc1)c1cc3c(cc1N2CCO)OCCO3 (centres undefined)	SN12C renal	35.1

Q: // growth lookup, key: COC1C(O)CC(OC2CC(OC3CC(O[C@@H]4C(=O)c5c(cc6cc(OC7CC(OC8CC(O)C(O)C(C)O8)C(O)C(C)O7)c(C)c(O)c6c5O)CC4[C@H](OC)C(=O)O)OC(C)C3O)OC(C)C2O)OC1C (some centres undefined)
Result: 20.7

Q: // growth lookup, key: `N#CSc1c[nH]c2ccc(/C=C/C(=O)/C=C(O)/C=C/c3ccc4[nH]cc(SC#N)c4c3)cc12`
Result: 18.4

Q: // growth lookup, key: COc1cc2c(c(OC)c1OC)C(=O)CC(c1cccc(C(=O)Nc3ccccc3Br)c1)O2 (centres undefined)
Result: 80

Q: // growth lookup, key: `C[C@H](c1nc2ccc(C#N)cc2[nH]1)[C@H]1CC[C@H]2[C@@H]3CCC4=CC(=O)CC[C@]4(C)[C@H]3CC[C@]12C`
Result: 69.5

----------
tested on: DU-145 prostate; assay: NCI-60 one-dose screen, 48 h (100 = growth as untreated, 0 = no growth, -100 = all killed); conditions: 10 µM unless noted
About 83,000 compounds went through this panel and 20% of them were active in at least one assay; those are over-represented in the sample as a whole.
Label rule, in plain words: growth of 80% and up is MET, under 80% is NOT MET.

Some solved cases for reference:
C=CCN=c1sc(-c2ccc3ccccc3c2)cn1NC(=O)c1cc2ccc1CCc1ccc(cc1)CC2 NOT MET
Cn1cc(-c2nonc2-c2c[nH]c3ccccc23)c2cc(Br)ccc21 NOT MET
Cc1c2ncccc2nc2[nH]c3ccc(OCCN(C)C)cc3c12 NOT MET
CCOC(=O)c1nnn(Cc2cc(=O)oc3ccc(O)cc23)c1C MET
COc1ccc(N=C2NN=C(c3c[nH]c4ccccc34)CS2)cc1OC NOT MET

Q: Determine whether measured growth meets or exceeds 80% for `O=c1cc(CP(=O)(O)O)c2cc(O)c(-c3ccccc3)cc2o1`
Result: MET

Q: Determine whether measured growth meets or exceeds 80% for `CN(C)Cc1cc(C(C)(C)C)cc(Br)c1O`
Result: MET

----------
tested on: SF-295 CNS; experiment: NCI-60 one-dose screen, 48 h (100 = growth as untreated, 0 = no growth, -100 = all killed); conditions: 10 µM unless noted
This is part of a sample that, as a whole, favours compounds with a hit. Of some 83,000 tested, about 20% had one in any assay.
Measured Quantity: growth (%)
Give the quantity in %, number only.

Molecule	growth (%)
Cc1cccc(-c2nc(C(C)C)sc2-c2ccnc(NCCCNS(=O)(=O)c3ccc(Cl)cc3)c2)c1	80.7
Cc1[nH]c(C(=O)Nc2ccccc2OC2CCN(CCN3CCOCC3)CC2)c(Cl)c1Cl	97.7
c1cc(OCCN2CCCCCC2)ccc1CNc1ccc2nc(CCC3CCCCC3)[nH]c2c1	79.1
Nc1ncccc1O	82.4
N=C(N)c1ccc(OCCSCCOc2ccc(C(=N)N)cc2)cc1	-33.5

Q: // growth lookup, key: `C/C(=C(\c1ccc(OCCN2CCCCCC2)cc1)c1ccc(OC(=O)c2ccccc2)cc1)c1ccc(Cl)cc1`
Result: 44.4

Q: // growth lookup, key: `COc1ccc(C(=O)Nc2ncc(Cc3ccc(Cl)cc3)s2)cc1`
Result: 1.3

Q: // growth lookup, key: `O=S(=O)(Nc1ccc2ccccc2c1)c1ccc(-c2cnc(C3CC3)o2)cc1`
Result: 34.2

Q: // growth lookup, key: `COc1ccc(/C=C2\CN(C(=O)C(Cl)Cl)C/C(=C\c3ccc(OC)c(OC)c3)C2=O)cc1OC`
Result: -39.6

Q: // growth lookup, key: `CN1CCN(c2ccc(NC3=CC(=O)c4ncncc4C3=O)cc2)CC1`
Result: -96.1

Q: // growth lookup, key: `N#Cc1ccc(/C=C/c2cn(-c3ccccc3)nc2-c2cccc([N+](=O)[O-])c2)cc1`
Result: 62.5

Q: // growth lookup, key: `Fc1cccc(CNc2c3ccccc3nc3ccccc23)c1`
Result: 25.2

Q: // growth lookup, key: `C=CCN=c1sc(-c2ccc3ccccc3c2)cn1NC(=O)c1cc2ccc1CCc1ccc(cc1)CC2`
Result: 46

Q: // growth lookup, key: `COCCn1cc(-c2nc(-c3cc4cccnc4n3C)cs2)c2ccccc21`
Result: 36.5

Q: // growth lookup, key: `CCOC(=O)C#Cc1c(C(=O)OCC)nnn1[C@@H]1O[C@H](COC)[C@@H](OC)[C@H]1OC`
Result: 95.1

src = PubChem BioAssay (NCI)
